Test system: HCC-2998 colon
Assay: NCI-60 one-dose screen, 48 h
Conditions: 10 µM unless noted
The panel holds about 83,000 compounds, 20% with a hit somewhere; the sample as a whole holds those more often. Activity calls are given as the source filed them. Rule for the calls: active = growth percent below 10; inactive = the rest.
Just give me one of these, please: Y (active), N (inactive)

- compound: "CC1=C2[C@@H](CC1)[C@]1(C)O[C@@](C(C)C)(C[C@H]1O)[C@H]2OC(=O)C1CC1c1ccccc1 (some centres not stated)"
  assigned.label: "N"
- compound: "COc1ccc(/C=C\\c2cc(OC)c(OC)c(OC)c2)c(NS(=O)(=O)c2ccc(C)cc2)c1O"
  assigned.label: "N"
- compound: "CCCCCCCCOC(=O)CCN1CC1"
  assigned.label: "N"
- compound: "COc1cc([C@@H]2c3cc4c(cc3[C@H](OC(C)=O)[C@H]3COC(=O)[C@H]23)OCO4)cc(OC)c1OC"
  assigned.label: "N"
- compound: "O=[N+]([O-])CC(c1ccccc1Cl)c1c(-c2ccccc2)[nH]c2ccccc12 (configuration not stated)"
  assigned.label: "N"

Identify the outcome logged in this assay for the compound shown: `Oc1c(O)c(Cl)c(Cl)c(Cl)c1Cl`
N

Please state the recorded outcome for this compound: `COc1ccc(S(=O)(=O)N(Cc2ccc3c(c2)C=CC(C)(C)O3)c2ccccc2)cc1OC`
N

Tell me the assay call for CCOC(=O)C(Cc1ccc(N(CCCl)CCCl)cc1)NC(=O)C(CC(C)C)NC(C)=O (configuration not stated) please.
N

Query: recorded result category for `CC(=O)[O][Hg][c]1c(N)c(C)cc(C)c1F` in this test
N

I'd appreciate the recorded outcome for `O=[As](O)(O)c1ccccc1[As](=O)(O)O` from this test.
N

Hi, do you know how `COc1ccc(Nc2ccc([N+](=O)[O-])cc2[N+](=O)[O-])cc1CN(CCCl)CCCl` came out in this test?
N

Record request — test call for `OCCCCCNC1CCCCC1`
N

What call does the record list for COc1ccc(C2=CC(c3ccc(OC)c(OC)c3)c3c(c4ccccc4oc3=O)O2)cc1OC (configuration not stated) ?
N

For CC(C)OC(=O)[C@H](C)NP(=O)(Oc1ccccc1)C1CCCN(O)C1=O (some centres not stated) , which call appears in the assay record?
N

# fetch the recorded call for `O=c1[nH]cc(N(CCCl)CCCl)c(=O)[nH]1` here
N

// return assay outcome for `Cn1cc(-c2csc(-c3cn(CCN4CCOCC4)c4ccc(F)cc34)n2)c2cccnc21`
N

What did the test return for `CC(C)(NC(=O)O[C@@H]1CN2CCC1CC2)c1csc(-c2ccc(F)cc2)n1` ?
N
